Where do these numbers come from? They come from patent US9624215B2.

The reader will find reported pIC50 values listed item by item below.
# System: normal human neonatal foreskin epidermal keratinocytes (NHEK-F)
# method.description: Cell proliferation inhibition test
# Type: cell-based
# test.context: Keratinocyte, 72 h, NHEK-F cells, three days incubation, ATPlite or CellTiterGlo, read-out: IC50 (concentration of the compound at which the cell count is reduced by 50%)
pIC50: −log10 of the molar value.

Answered cases to consult:
chemical.smiles	assayed.system	pIC50
Cn1ccc2cc(Nc3ncc(C4CC4)cc3C(=O)O)cc(CCC(C)(C)C)c21	normal human neonatal foreskin epidermal keratinocytes (NHEK-F)	≥ 8.00
O=C(O)c1cc(Cl)ccc1Nc1ccc2c(ccn2C2CC2)c1	normal human neonatal foreskin epidermal keratinocytes (NHEK-F)	7.00 to 8.00
Cn1ccc2cc(Nc3ncc(C4CC4)cc3C(=O)O)cc(-c3cccc(C(F)(F)F)c3)c21	normal human neonatal foreskin epidermal keratinocytes (NHEK-F)	≥ 8.00
Cn1ccc2cc(Nc3ncc(C4CC4)cc3C(=O)O)cc(C3=CCOCC3)c21	normal human neonatal foreskin epidermal keratinocytes (NHEK-F)	≥ 8.00
Cn1ccc2cc(Nc3ncc(C4CC4)cc3C(=O)O)cc(-c3ccccc3C#N)c21	normal human neonatal foreskin epidermal keratinocytes (NHEK-F)	≥ 8.00

Entry Cn1cc(-c2ccccc2)c2cc(Nc3ncc(Cl)cc3C(=O)O)ccc21 needs its pIC50 filled in; supply it.
7.00 to 8.00

Entry CCOCCc1cc(Nc2ncc(C3CC3)cc2C(=O)O)cc2ccn(C)c12 needs its pIC50 filled in; supply it.
7.00 to 8.00

Entry O=C(O)c1cc(Cl)ccc1Nc1ccc2c(c1)c(C(=O)c1ccccc1)cn2Cc1ccccc1 needs its pIC50 filled in; supply it.
6.00 to 7.00

Entry COCCCc1cc(Nc2ncc(C3CC3)cc2C(=O)O)cc2ccn(C)c12 needs its pIC50 filled in; supply it.
7.00 to 8.00

Entry Cn1ccc2cc(Nc3ncc(C4CC4)cc3C(=O)O)cc(-c3ccc(C#N)cc3)c21 needs its pIC50 filled in; supply it.
≥ 8.00

* * *

# System: normal human neonatal foreskin epidermal keratinocytes (NHEK-F)
# method.description: Cell proliferation inhibition test
# Format: cell-based
# test.context: Keratinocyte, 72 h, NHEK-F cells, three days incubation, ATPlite or CellTiterGlo, read-out: IC50 (concentration of the compound at which the cell count is reduced by 50%)
measure.name: IC50

Answered cases to consult:
molecule	assayed.system	IC50
Cn1ccc2cc(Nc3ncc(C4CC4)cc3C(=O)O)cc(-c3ccc(OC(F)(F)F)cc3)c21 [Example 493]	normal human neonatal foreskin epidermal keratinocytes (NHEK-F)	≤ 0.01 µM
COCCCc1cc(Nc2ncc(C3CC3)cc2C(=O)O)cc2ccn(CC(C)C)c12 [Example 608]	normal human neonatal foreskin epidermal keratinocytes (NHEK-F)	≤ 0.01 µM
Cn1c(=O)n(Cc2ccccc2)c2ccc(Nc3ccc(Cl)cc3C(=O)O)cc21 [Example 65]	normal human neonatal foreskin epidermal keratinocytes (NHEK-F)	0.1 to 1 µM

Entry Cc1cc(Nc2ncc(C3CC3)cc2C(=O)O)cc2ccn(Cc3cccc(F)c3)c12 [Example 621] needs its IC50 filled in; supply it.
≤ 0.01 µM
